- Test system: MRSP (Methicillin-Resistant Staphylococcus pseudintermedius)
- protocol: MIC against selected strains of MRSP
- Type: cell-based
- Set-up: key: MIC in μM (visual, first well with no growth)
- run conditions: MRSP strain 72035, Table 6
experimental readout: MR 72035

[[record]]
substance = "31 (PWCFRVCYRGICYRRCRD; Artificial Antimicrobial peptide) [compound 31]"
experimental_result = 1.6

[[record]]
substance = "105 (KWCFRVCYRGICYRRCRN; Artificial Antimicrobial peptide) [compound 105]"
experimental_result = 1.6

[[record]]
substance = "30 (PWCFRVCYRGICYRRCR; Artificial Antimicrobial peptide) [compound 30]"
experimental_result = 0.8

[[record]]
substance = "104 (KWCFRVCYFGICYRRCRD; Artificial Antimicrobial peptide) [compound 104]"
experimental_result = 1.6

[[record]]
substance = "110 (KWCFRVCYRGYCYRRCRD; Artificial Antimicrobial peptide) [compound 110]"
experimental_result = 3.1

[[record]]
substance = "99 (KWCFFVCYRGICYRRCRD; Artificial Antimicrobial peptide) [compound 99]"
experimental_result = 3.1

[[record]]
substance = "115 (GWCFRVCYRGICYRRCND; Artificial Antimicrobial peptide) [compound 115]"
experimental_result = 1.6

[[record]]
substance = "102 (KWCFRACYRGICYRRCRD; Artificial Antimicrobial peptide) [compound 102]"
experimental_result = 3.1

[[record]]
substance = "112 (KWCFRVCYRGICYRRCKD; Artificial Antimicrobial peptide) [compound 112]"
experimental_result = 1.6

[[record]]
substance = "98 (KWCVRVCYRGICYRRCRD; Artificial Antimicrobial peptide) [compound 98]"
experimental_result = 3.1

[[record]]
substance = "106 (KWCWRVCYRGICYRRCRD; Artificial Antimicrobial peptide) [compound 106]"
experimental_result = 3.1

